Source: patent US9321762B2

# assayTarget: B-Raf kinase (Homo sapiens, UniProt P15056)
# Construct: purchased Upstate Biotechnology
# Sequence (P15056 whole entry): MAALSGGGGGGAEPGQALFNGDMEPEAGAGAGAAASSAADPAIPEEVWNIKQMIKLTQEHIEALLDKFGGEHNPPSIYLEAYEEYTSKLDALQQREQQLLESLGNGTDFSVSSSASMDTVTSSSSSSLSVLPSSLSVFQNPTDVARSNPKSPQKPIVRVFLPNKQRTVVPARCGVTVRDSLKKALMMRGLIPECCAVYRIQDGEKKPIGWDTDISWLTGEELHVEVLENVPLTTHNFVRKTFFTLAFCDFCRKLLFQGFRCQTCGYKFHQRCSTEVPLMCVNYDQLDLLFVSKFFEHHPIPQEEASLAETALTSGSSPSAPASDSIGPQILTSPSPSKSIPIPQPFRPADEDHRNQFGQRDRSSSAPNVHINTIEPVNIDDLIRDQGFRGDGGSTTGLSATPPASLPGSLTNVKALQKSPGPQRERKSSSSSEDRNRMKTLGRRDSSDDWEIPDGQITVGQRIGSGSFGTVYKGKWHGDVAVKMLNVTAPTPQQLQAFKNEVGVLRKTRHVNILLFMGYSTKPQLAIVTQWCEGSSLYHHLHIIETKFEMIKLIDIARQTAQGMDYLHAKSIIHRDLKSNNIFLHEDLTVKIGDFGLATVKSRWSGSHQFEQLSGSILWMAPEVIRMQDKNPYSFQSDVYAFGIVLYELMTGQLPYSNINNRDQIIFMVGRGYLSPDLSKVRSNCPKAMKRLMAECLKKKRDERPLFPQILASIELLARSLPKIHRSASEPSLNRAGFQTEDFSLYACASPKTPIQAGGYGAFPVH
# assaySummary: B-Raf kinase assay ([33P] incorporation into MEK1(K97R))
# Type: biochemical
# condition: class symbols; 8 μM ATP; read-out: IC50 against B-Raf kinase
pIC50: −log10 of the molar value.
# pIC50 values compiled below

1) CCCS(=O)(=O)Nc1ccc(F)c(Nc2ncnc3ccc(-n4ccnc4)cc23)c1F: 5.00 to 6.00
2) CCCS(=O)(=O)N(C)c1ccc(F)c(N(C)c2ncnc3ccc(-c4cccnc4F)cc23)c1F: 6.00 to 6.52
3) CCCS(=O)(=O)Nc1ccc(F)c(Nc2ncnc3ccc(-c4cncc(C(F)(F)F)c4)cc23)c1F: 6.00 to 6.52
4) CCCS(=O)(=O)Nc1ccc(F)c(Nc2ncnc3ccc(-c4cccc(OCCOC)n4)cc23)c1F: > 6.52
5) CCCS(=O)(=O)Nc1ccc(F)c(Nc2ncnc3ccc(-c4cnc(OC)c(N)c4)cc23)c1F: 6.00 to 6.52
6) CCCS(=O)(=O)Nc1ccc(F)c(Nc2ccnc3ccc(-c4ccnc(F)c4)cc23)c1F: > 6.52
7) CCS(=O)(=O)Nc1ccc(F)c(Nc2ncnc3ccc(-c4cccnc4F)cc23)c1F: 5.00 to 6.00
8) CCCS(=O)(=O)Nc1ccc(F)c(Nc2ncnc3ccc(-c4ccnc(OC)c4)cc23)c1F: > 6.52
9) C#Cc1ccc2ncnc(Nc3c(F)ccc(NS(=O)(=O)CCC)c3F)c2c1: 5.00 to 6.00
10) CCCS(=O)(=O)Nc1ccc(F)c(Nc2ccnc3ccc(-c4cccnc4F)cc23)c1F: > 6.52

The value of pIC50 measured for the compound CCCS(=O)(=O)Nc1ccc(F)c(Nc2ncnc3ccc(-c4cccc(OCCN(C)C)n4)cc23)c1F turned out to be > 6.52

So, CCCS(=O)(=O)Nc1ccc(F)c(Nc2ncnc3ccc(-c4cccnc4F)cc23)c1 ? Its pIC50 was 5.00 to 6.00

----------
# assayTarget: C-Raf kinase (Homo sapiens, UniProt P04049)
# Construct: purchased Upstate Biotechnology
# Sequence (P04049 whole entry): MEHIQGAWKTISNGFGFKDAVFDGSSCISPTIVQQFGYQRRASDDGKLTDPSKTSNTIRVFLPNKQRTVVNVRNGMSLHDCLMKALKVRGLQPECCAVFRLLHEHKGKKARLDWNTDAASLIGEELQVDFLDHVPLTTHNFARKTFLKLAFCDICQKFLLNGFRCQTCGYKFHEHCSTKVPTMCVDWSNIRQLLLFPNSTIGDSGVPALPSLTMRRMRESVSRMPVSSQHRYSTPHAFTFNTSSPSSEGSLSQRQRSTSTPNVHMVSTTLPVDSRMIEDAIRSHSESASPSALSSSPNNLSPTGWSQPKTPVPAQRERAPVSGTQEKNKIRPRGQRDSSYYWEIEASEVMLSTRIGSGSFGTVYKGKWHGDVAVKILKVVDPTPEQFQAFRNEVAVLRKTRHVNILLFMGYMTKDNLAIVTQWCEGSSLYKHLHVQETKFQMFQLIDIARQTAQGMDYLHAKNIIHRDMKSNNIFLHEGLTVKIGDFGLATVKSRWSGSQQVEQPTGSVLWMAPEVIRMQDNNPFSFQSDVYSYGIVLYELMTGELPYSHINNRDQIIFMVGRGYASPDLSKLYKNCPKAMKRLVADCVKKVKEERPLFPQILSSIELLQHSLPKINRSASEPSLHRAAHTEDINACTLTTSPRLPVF
# assaySummary: C-Raf kinase assay ([33P] incorporation into MEK1(K97R))
# Format: biochemical
# condition: class symbols; 8 μM ATP; read-out: IC50 against C-Raf kinase
pIC50: −log10 of the molar value.
propertyLabel: pIC50

// worked examples, pIC50 included
1. CCCS(=O)(=O)Nc1ccc(F)c(Nc2ncnc3cc(F)c(-c4cccnc4F)cc23)c1F: > 6.52
2. O=S(=O)(Nc1ccc(F)c(Nc2ncnc3ccc(-c4cccnc4F)cc23)c1F)c1ccccc1: > 6.52
3. CCCS(=O)(=O)Nc1ccc(F)c(Nc2ncnc3ccc(-c4ccc(OCCN(C)C)nc4)cc23)c1F: 5.00 to 6.00
4. CCCS(=O)(=O)Nc1ccc(F)c(Nc2ncnc3ccc(-c4cccc(OCCOC)n4)cc23)c1F: 6.00 to 6.52
5. CCCS(=O)(=O)Nc1ccc(F)c(Nc2ncnc3ccc(-c4cncc(F)c4)cc23)c1F: > 6.52

Moving on to another molecule below.
For CCCS(=O)(=O)Nc1ccc(F)c(Nc2ncnc3ccc(-c4ccc(F)nc4)cc23)c1F the molecule record lists pIC50 as > 6.52

----------
# assayTarget: EGFR kinase (Homo sapiens)
# Construct: EGFR kinase domain alone, Millipore; purchased Millipore
# Sequence (P00533 712-979 limits assumed): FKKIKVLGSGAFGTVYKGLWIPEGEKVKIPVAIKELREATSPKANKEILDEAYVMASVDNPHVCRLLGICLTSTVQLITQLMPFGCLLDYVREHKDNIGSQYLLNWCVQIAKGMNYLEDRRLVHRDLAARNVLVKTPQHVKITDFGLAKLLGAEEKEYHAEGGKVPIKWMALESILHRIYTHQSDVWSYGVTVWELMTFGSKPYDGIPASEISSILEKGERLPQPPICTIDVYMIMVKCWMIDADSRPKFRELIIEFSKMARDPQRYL
# assaySummary: EGFR radiometric kinase assay
# Type: biochemical
# condition: class symbols; 100 μM ATP; read-out: Inhibition activity, IC50 EGFR
propertyLabel: IC50

1) CCCS(=O)(=O)Nc1ccc(F)c(Nc2ncnc3ccc(-c4ccc(OC)nc4)cc23)c1F: 1000 to 3000 nM
2) CCCS(=O)(=O)Nc1ccc(F)c(Nc2ncnc3ccc(-c4ccc(OCCN(C)C)nc4)cc23)c1F: 300 to 1000 nM
3) O=S(=O)(Nc1ccc(F)c(Nc2ncnc3ccc(-c4cccnc4F)cc23)c1F)c1ccccc1: 1000 to 3000 nM
4) CCCS(=O)(=O)Nc1ccc(F)c(Nc2ncnc3ccc(-c4cccc(C#N)n4)cc23)c1F: 300 to 1000 nM
5) CCCS(=O)(=O)Nc1ccc(F)c(Nc2ncnc3ccc(-c4cccc(OC)n4)cc23)c1F: 300 to 1000 nM

Measured IC50, CCCS(=O)(=O)Nc1ccc(F)c(Nc2ncnc3ccc(-c4ccnc(OC)c4)cc23)c1F : 300 to 1000 nM
